Tested on: HEK-293T
Assay: Multiplex assay against HEK293T
Format: toxicity, cell-based
Conditions: human, 48 h, 10 µM, compound concentration 10 uM
Record form. Attribute: Population Pyknosed Nuclei (%). Fill in for each entry.
Reply with the number and its unit after it.

Prompt: Specify reported Population Pyknosed Nuclei (%) for the compound shown: Cc1nc2ccc(Oc3ccc(F)cc3)cc2c(=O)n1C[C@H]1CCCN(C(C)C)C1.Cl
Completion: 9%

Prompt: Read the entry C[C@H](NC(=O)c1c(C(F)F)nn(C)c1Oc1cccc(C(F)(F)F)c1)c1ccc(C(=O)O)cc1 and write its reported Population Pyknosed Nuclei (%).
Completion: 6%

Prompt: Please look at this compound and report its Population Pyknosed Nuclei (%): CC1(COc2ccc3c(c2)ncn3-c2ccc3cccc(N4CCC(N)CC4)c3n2)COC1
Completion: 30%

Prompt: Using known records, supply Population Pyknosed Nuclei (%) for COc1cc2nc(N3CCN(C(=O)c4ccco4)CC3)nc(N)c2cc1OC.Cl [PRAZOSIN HYDROCHLORIDE]
Completion: 7%

Prompt: Given Cn1cc(C(=O)OCC2CCN(CCNS(C)(=O)=O)CC2)c2ccccc21 , respond with its Population Pyknosed Nuclei (%).
Completion: 6%

Prompt: Please report the measured Population Pyknosed Nuclei (%) for C[C@H](NC(=O)CNC(=O)c1cccc(Cl)c1)c1ccccc1
Completion: 7%
